- tested target: HLA-B*15:17
- assay info: IEDB peptide-MHC binding, purified MHC/competitive/fluorescence; filed as Kd, often an IC50 or EC50 that approximates it; bounds were set here for any values at or beyond the usual limits of such assays
- experimental parameters: source organism: Pan troglodytes
property name: Kd

INPUT: I'm curious: which Kd was measured for FLFDRLTNG tested on HLA-B*15:17?
OUTPUT: ≥ 20 µM

----------
- tested target: HLA-B*15:01
- assay info: IEDB peptide-MHC binding, purified MHC/competitive/fluorescence; filed as Kd, often an IC50 or EC50 that approximates it; bounds were set here for any values at or beyond the usual limits of such assays
- experimental parameters: source organism: Four Corners hantavirus
property name: Kd

INPUT: // Kd lookup, key: KARNIISPV
OUTPUT: ≥ 20 µM

----------
- tested target: HLA-A*31:01
- assay info: IEDB peptide-MHC binding, purified MHC/competitive/radioactivity; filed as Kd, often an IC50 or EC50 that approximates it; bounds were set here for any values at or beyond the usual limits of such assays
- experimental parameters: source organism: Mammarenavirus machupoense
Listed here: items and their measured Kd.
Provide only the numeric value, understood in nM.

# seq string, Kd (nM)
rows = [
    ("SFFQEIPVFL", 613),
]

Continue with the sequence presented below.
INPUT: // Kd lookup, key: RTAPPSLYGR
OUTPUT: 1.59

----------
- tested target: HLA-A*02:03
- assay info: IEDB peptide-MHC binding, purified MHC/direct/fluorescence; filed as Kd, often an IC50 or EC50 that approximates it; bounds were set here for any values at or beyond the usual limits of such assays
- experimental parameters: source organism: Vibrio vulnificus CMCP6
property name: Kd (nM)
Provide only the numeric value, understood in nM.

INPUT: // Kd lookup, key: GLKELGDWV
OUTPUT: 2

----------
Listed here: items and their measured Kd.
- tested target: HLA-B*46:01
- assay info: IEDB peptide-MHC binding, purified MHC/competitive/fluorescence; filed as Kd, often an IC50 or EC50 that approximates it; bounds were set here for any values at or beyond the usual limits of such assays
- experimental parameters: source organism: Homo sapiens

# seq string, Kd
rows = [
    ("LTDSSTLLV", "≥ 20 µM"),
]

INPUT: // Kd lookup, key: FMDPGIFPR
OUTPUT: ≥ 20 µM

INPUT: // Kd lookup, key: SIRDGVRAY
OUTPUT: 0.0515 µM

----------
- tested target: HLA-A*33:01
- assay info: IEDB peptide-MHC binding, purified MHC/competitive/radioactivity; filed as Kd, often an IC50 or EC50 that approximates it; bounds were set here for any values at or beyond the usual limits of such assays
- experimental parameters: source organism: Vaccinia virus Copenhagen
property name: pKd
pKd field: float, defined as -log10 of concentration (mol/L).

INPUT: // pKd lookup, key: ILNFLDWIK
OUTPUT: 5.89

----------
- tested target: HLA-B*07:02
- assay info: IEDB peptide-MHC binding, purified MHC/competitive/fluorescence; filed as Kd, often an IC50 or EC50 that approximates it; bounds were set here for any values at or beyond the usual limits of such assays
- experimental parameters: source organism: Influenza A virus (A/swine/Italy/2/1979(H1N1))
property name: pKd
pKd field: float, defined as -log10 of concentration (mol/L).

INPUT: // pKd lookup, key: LPFERATV
OUTPUT: 7.98

----------
- tested target: HLA-A*11:01
- assay info: IEDB peptide-MHC binding, purified MHC/direct/fluorescence; filed as Kd, often an IC50 or EC50 that approximates it; bounds were set here for any values at or beyond the usual limits of such assays
- experimental parameters: source organism: Giardia lamblia ATCC 50803
property name: pKd
pKd field: float, defined as -log10 of concentration (mol/L).

# seq string, tested target, measurement
data = [
    ("RIYDPLWFQ", "HLA-A*11:01", 5.53),
    ("SVFHEHIFK", "HLA-A*11:01", 8.04),
    ("ASSWAPTQK", "HLA-A*11:01", 7.76),
]

Continue with the sequence presented below.
INPUT: I'm curious: which pKd was measured for YIASIFMPR tested on HLA-A*11:01?
OUTPUT: 7.35

----------
- tested target: HLA-A*26:01
- assay info: IEDB peptide-MHC binding, purified MHC/competitive/radioactivity; filed as Kd, often an IC50 or EC50 that approximates it; bounds were set here for any values at or beyond the usual limits of such assays
- experimental parameters: source organism: Mammarenavirus juninense
Listed here: items and their measured pKd.
pKd field: float, defined as -log10 of concentration (mol/L).

Answered cases to consult:
# seq string, pKd
records = [
    ("GEKSRCYSIY", 4.74),
    ("VAHSSLYGRY", 4.93),
]

INPUT: // pKd lookup, key: EALSGFLQY
OUTPUT: 5.83

----------
- tested target: HLA-A*03:01
- assay info: IEDB peptide-MHC binding, purified MHC/direct/fluorescence; filed as Kd, often an IC50 or EC50 that approximates it; bounds were set here for any values at or beyond the usual limits of such assays
- experimental parameters: source organism: Influenza A virus (A/chicken/Hunan/fg/2004(H5N1))
property name: Kd

INPUT: I'm curious: which Kd was measured for YSHGTGTGY tested on HLA-A*03:01?
OUTPUT: ≥ 20 µM

----------
- tested target: HLA-C*07:02
- assay info: IEDB peptide-MHC binding, purified MHC/direct/fluorescence; filed as Kd, often an IC50 or EC50 that approximates it; bounds were set here for any values at or beyond the usual limits of such assays
- experimental parameters: source organism: Influenza A virus (A/Kayano/57(H2N2))
property name: Kd (nM)
Provide only the numeric value, understood in nM.

INPUT: // Kd lookup, key: LPFHNVHPL
OUTPUT: 2490

----------
- tested target: HLA-B*08:01
- assay info: IEDB peptide-MHC binding, purified MHC/direct/fluorescence; filed as Kd, often an IC50 or EC50 that approximates it; bounds were set here for any values at or beyond the usual limits of such assays
- experimental parameters: source organism: Salmonella enterica subsp. enterica serovar Typhi
property name: Kd (µM)
Provide only the numeric value, understood in µM.

INPUT: // Kd lookup, key: LPLIVDTAA
OUTPUT: 11.2

----------
- tested target: HLA-A*11:01
- assay info: IEDB peptide-MHC binding, purified MHC/competitive/fluorescence; bounds were set here for any values at or beyond the usual limits of such assays
- experimental parameters: source organism: Monodelphis domestica
property name: pIC50
pIC50 field: float, defined as -log10 of concentration (mol/L).

INPUT: I'm curious: which pIC50 was measured for YSLEYFQFVKK tested on HLA-A*11:01?
OUTPUT: 5.54

----------
- tested target: HLA-A*01:01
- assay info: IEDB peptide-MHC binding, purified MHC/competitive/radioactivity; filed as Kd, often an IC50 or EC50 that approximates it; bounds were set here for any values at or beyond the usual limits of such assays
- experimental parameters: source organism: Dengue virus 4 Dominica/814669/1981
property name: Kd (nM)
Provide only the numeric value, understood in nM.

INPUT: // Kd lookup, key: NLTSTWVMY
OUTPUT: 1990

----------
- tested target: HLA-A*29:02
- assay info: IEDB peptide-MHC binding, purified MHC/competitive/radioactivity; filed as Kd, often an IC50 or EC50 that approximates it; bounds were set here for any values at or beyond the usual limits of such assays
- experimental parameters: source organism: SARS coronavirus Tor2
pKd: −log10 of the molar value.
// Not met strictly below 7 in pKd; Met otherwise

# seq string, assigned class
rows = [
    ("QWNLVIGFLF", "Met"),
    ("DSSQGSEYDY", "Not met"),
    ("LYLYALIYFL", "Not met"),
    ("GAEHVDTSY", "Not met"),
]

Next, consider the following sequence.
INPUT: Please tell me: is the sequence ATVAYFNMVY at or over 7 in terms of pKd?
OUTPUT: Met

----------
- tested target: HLA-B*46:01
- assay info: IEDB peptide-MHC binding, purified MHC/direct/fluorescence; filed as Kd, often an IC50 or EC50 that approximates it; bounds were set here for any values at or beyond the usual limits of such assays
- experimental parameters: source organism: Camelpox virus M-96
pKd: −log10 of the molar value.
Listed here: items and their measured pKd.

# seq string, tested target, property name, measurement
measured = [
    ("IHIPGDTLF", "HLA-B*46:01", "pKd", "≤ 4.70"),
]

Continue with the sequence presented below.
INPUT: I'm curious: which pKd was measured for SLFTEQAFY tested on HLA-B*46:01?
OUTPUT: ≤ 4.70

----------
- tested target: HLA-A*02:17
- assay info: IEDB peptide-MHC binding, purified MHC/competitive/radioactivity; filed as Kd, often an IC50 or EC50 that approximates it; bounds were set here for any values at or beyond the usual limits of such assays
- experimental parameters: source organism: Dengue virus 3 Sri Lanka/1266/2000
property name: pKd
pKd field: float, defined as -log10 of concentration (mol/L).

# seq string, tested target, property name, measurement
measured = [
    ("ALFSGVSWV", "HLA-A*02:17", "pKd", 6.34),
]

Continue with the sequence presented below.
INPUT: I'm curious: which pKd was measured for ALFSGVSWVM tested on HLA-A*02:17?
OUTPUT: 6.16

Cited source: the Immune Epitope Database (IEDB)
